Values compiled from paper PMC2824762.

- EXPERIMENTAL_TARGET: RFC (Replication Factor C clamp loader);PCNA wild-type (Saccharomyces cerevisiae;Saccharomyces …, UniProt P38630;P40348;P38629;P40339;P38251;P15873 1-861;1-353;2-340;1-323;1-354;1-258, |)
- ASSAY: fluorescence anisotropy; RFC titrated; 1 uM PCNA, 1 mM ATPgS, 10 mM MgCl2; Anisotropy: 30 mM Tris pH 7.5, 200 mM NaCl, 2 mM DTT, 1 mM ATPgS, 10 mM MgCl2, 100 nM TAMRA-DNA, 1 uM PCNA, 25 C. Crystals: 100 mM Na acetate pH 4.6, 100 mM NaCl, 14% PEG 4K, 20 C
- ASSAY_CONTEXT: protein: recombinant;recombinant; tags: ;N-terminal 6-His, PreScission-cleaved; copies: 1;1;1;1;1;3; label: TAMRA at 5' end of template strand; 5' overhang 10 nt on template (3' recessed primer), 30 bp duplex
pKd: −log10 of the molar value.
READOUT_NAME: pKd

[[record]]
binder = "DNA-30 (dsDNA) DNA 1: GAGCATTCAAGGACTTAGGTCTGTATTTATCTACCCACAA DNA 2: TTGTGGGTAGATAAATACAGACCTAAGTCC"
measurement = "~7.00"

